system_under_test: T1, HLA-DR3 (HLA-DRB1*03:01) (human)
T1 construct: mature; purified from homozygous EBV-transformed lymphoblastoid cells with antibody L243
method: competition ELISA vs biotin-MT 2-16
No end group written: not given here.
Binary call on relative affinity with cut-off 1: strictly below means Fulfilled, and equality or higher means Not fulfilled.

AKINMAGAKRVPTAP-NH2 [CCNB1 17-31] | Not fulfilled
EPILVDTASPSPMET-NH2 [CCNB1 118-132] | Fulfilled
MEMKILRALNFGLGR-NH2 [CCNB1 285-299] | Not fulfilled
LHFLRRASKIGEVDV-NH2 [CCNB1 303-317] | Not fulfilled
HQIRQMEMKILRALN-NH2 [CCNB1 280-294] | Fulfilled
